Give measured log10 of GI50 for each item. Keep answers brief.
Tested on: K562
MEASUREMENT_NOTES: Cytotoxicity assay (resazurin) on K562
Assay type: cell-based
CONDITIONS_USED: Homo sapiens, 72 h
Note: values are log10 of GI50 expressed in µM.

q: Determine its reported log10 of GI50: CN1CCN(c2ccc(Nc3nc(NC4CCCCC4)c4ncn(CC5CC5)c4n3)cc2)CC1 [Compound 13b]
a: 0.68

q: Determine its reported log10 of GI50: CN1CCN(c2ccc(Nc3nc(NCc4ccccc4)c4ncn(CC5CC5)c4n3)cc2)CC1 [Compound 13c]
a: 0.76

q: Determine its reported log10 of GI50: CC(C)CCn1cnc2c(Nc3ccc(F)c(F)c3)nc(Nc3ccc(N4CCN(CCO)CC4)cc3)nc21 [Compound 11f]
a: 0.77

q: Determine its reported log10 of GI50: Cc1cn(-c2cc(NC(=O)c3ccc(C)c(Nc4nccc(-c5cccnc5)n4)c3)cc(C(F)(F)F)c2)cn1 [Nilotinib, reference compound]
a: -1.60

q: Determine its reported log10 of GI50: CC(C)CCn1cnc2c(Nc3cccc(F)c3)nc(Nc3ccc(N4CCN(CCO)CC4)cc3)nc21 [Compound 11e]
a: 0.63

q: Determine its reported log10 of GI50: CN1CCN(Cc2ccc(Nc3nc(Nc4cccc(F)c4)c4ncn(CC5CC5)c4n3)cc2)CC1
a: 0.18

q: Determine its reported log10 of GI50: OCCN1CCN(c2ccc(Nc3nc(Nc4ccccc4)c4ncn(CC5CC5)c4n3)cc2)CC1 [Compound 11a]
a: 0.08

q: Determine its reported log10 of GI50: CC(C)CCn1cnc2c(Nc3ccccc3)nc(Nc3ccc(N4CCN(CCO)CC4)cc3)nc21 [Compound 11d]
a: 0.80

q: Determine its reported log10 of GI50: CCCCCCn1cnc2c(Nc3cccc(F)c3)nc(Nc3ccc(N4CCN(CCO)CC4)cc3)nc21 [Compound 11h]
a: 0.68

q: Determine its reported log10 of GI50: CCCCCCn1cnc2c(Nc3ccccc3)nc(Nc3ccc(N4CCN(CCO)CC4)cc3)nc21 [Compound 11g]
a: 0.65

q: Determine its reported log10 of GI50: CN1CCN(c2ccc(Nc3nc(Nc4cccc(F)c4)c4ncn(CC5CC5)c4n3)cc2)CC1 [II, reference compound]
a: -0.10

###

Test system: KCL22 cells containing Bcr-Abl^WT
MEASUREMENT_NOTES: Cytotoxicity assay (resazurin) on KCL22 WT
Assay type: cell-based, human
CONDITIONS_USED: Homo sapiens, KCL-22, 72 h, read-out: GI50 KCL22 WT
Friendly reminder: GI50 below 8 µM is criterion met, at or above is criterion not met.

q: Please determine if CN1CCN(c2ccc(Nc3nc(NCc4ccccc4)c4ncn(CC5CC5)c4n3)cc2)CC1 [Compound 13c] is below 8 µM in terms of GI50.
a: criterion not met

q: Please determine if CC(C)CCn1cnc2c(Nc3ccccc3)nc(Nc3ccc(N4CCN(CCO)CC4)cc3)nc21 [Compound 11d] is below 8 µM in terms of GI50.
a: criterion not met

q: Please determine if CCCCCCn1cnc2c(Nc3cccc(F)c3)nc(Nc3ccc(N4CCN(CCO)CC4)cc3)nc21 [Compound 11h] is below 8 µM in terms of GI50.
a: criterion not met

q: Please determine if OCCN1CCN(c2ccc(Nc3nc(Nc4ccccc4)c4ncn(CC5CC5)c4n3)cc2)CC1 [Compound 11a] is below 8 µM in terms of GI50.
a: criterion met

q: Please determine if CC(C)CCn1cnc2c(Nc3ccc(F)c(F)c3)nc(Nc3ccc(N4CCN(CCO)CC4)cc3)nc21 [Compound 11f] is below 8 µM in terms of GI50.
a: criterion met

q: Please determine if CCCCCCn1cnc2c(Nc3ccccc3)nc(Nc3ccc(N4CCN(CCO)CC4)cc3)nc21 [Compound 11g] is below 8 µM in terms of GI50.
a: criterion not met

q: Please determine if CCCCCCn1cnc2c(Nc3ccc(F)c(F)c3)nc(Nc3ccc(N4CCN(CCO)CC4)cc3)nc21 [Compound 11i] is below 8 µM in terms of GI50.
a: criterion not met

q: Please determine if CN1CCN(Cc2ccc(Nc3nc(Nc4ccc(F)c(F)c4)c4ncn(CC5CC5)c4n3)cc2)CC1 [Compound 7b] is below 8 µM in terms of GI50.
a: criterion not met

q: Please determine if OCCN1CCN(c2ccc(Nc3nc(Nc4cccc(F)c4)c4ncn(CC5CC5)c4n3)cc2)CC1 [Compound 11b] is below 8 µM in terms of GI50.
a: criterion met

q: Please determine if CN1CCN(c2ccc(Nc3nc(N)c4ncn(CC5CC5)c4n3)cc2)CC1 [Compound 13a] is below 8 µM in terms of GI50.
a: criterion not met

q: Please determine if OCCN1CCN(c2ccc(Nc3nc(Nc4ccc(F)c(F)c4)c4ncn(CC5CC5)c4n3)cc2)CC1 [Compound 11c] is below 8 µM in terms of GI50.
a: criterion met

q: Please determine if CN1CCN(c2ccc(Nc3nc(NC4CCCCC4)c4ncn(CC5CC5)c4n3)cc2)CC1 [Compound 13b] is below 8 µM in terms of GI50.
a: criterion not met

q: Please determine if CC(C)CCn1cnc2c(Nc3cccc(F)c3)nc(Nc3ccc(N4CCN(CCO)CC4)cc3)nc21 [Compound 11e] is below 8 µM in terms of GI50.
a: criterion met

###

TARGET_OF_ASSAY: recombinant Abl1 kinase (Homo sapiens, UniProt P00519)
Construct: made in house
Sequence (P00519 whole entry): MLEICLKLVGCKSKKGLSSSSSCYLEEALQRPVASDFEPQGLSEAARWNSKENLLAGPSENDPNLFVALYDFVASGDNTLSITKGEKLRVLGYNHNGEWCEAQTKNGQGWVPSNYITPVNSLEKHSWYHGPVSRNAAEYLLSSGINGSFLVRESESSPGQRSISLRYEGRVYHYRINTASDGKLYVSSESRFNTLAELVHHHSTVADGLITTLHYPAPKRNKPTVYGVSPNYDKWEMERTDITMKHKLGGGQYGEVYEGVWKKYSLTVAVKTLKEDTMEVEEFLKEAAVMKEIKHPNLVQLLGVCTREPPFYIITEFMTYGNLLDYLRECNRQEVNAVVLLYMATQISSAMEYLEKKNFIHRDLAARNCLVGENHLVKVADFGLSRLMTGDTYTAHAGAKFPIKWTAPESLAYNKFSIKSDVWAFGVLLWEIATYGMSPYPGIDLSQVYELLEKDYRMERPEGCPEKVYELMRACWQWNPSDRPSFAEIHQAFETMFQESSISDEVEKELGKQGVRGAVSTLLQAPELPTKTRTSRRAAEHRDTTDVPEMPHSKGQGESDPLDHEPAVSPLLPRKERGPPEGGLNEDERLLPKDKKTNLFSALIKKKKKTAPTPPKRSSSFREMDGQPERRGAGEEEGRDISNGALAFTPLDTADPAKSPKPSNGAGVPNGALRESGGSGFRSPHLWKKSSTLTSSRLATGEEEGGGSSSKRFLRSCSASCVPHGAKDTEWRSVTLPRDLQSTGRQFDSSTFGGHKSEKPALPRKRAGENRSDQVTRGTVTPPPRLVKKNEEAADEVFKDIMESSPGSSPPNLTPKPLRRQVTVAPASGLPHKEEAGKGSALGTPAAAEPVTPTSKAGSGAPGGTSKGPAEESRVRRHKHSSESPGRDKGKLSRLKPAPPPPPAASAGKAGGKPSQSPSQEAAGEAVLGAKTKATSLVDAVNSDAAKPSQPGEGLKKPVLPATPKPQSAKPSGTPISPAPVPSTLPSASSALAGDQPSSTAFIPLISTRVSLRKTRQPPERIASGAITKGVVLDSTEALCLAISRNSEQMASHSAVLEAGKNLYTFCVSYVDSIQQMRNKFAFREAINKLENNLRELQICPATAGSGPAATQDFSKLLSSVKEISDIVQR
MEASUREMENT_NOTES: Recombinant Abl1 kinase inhibition assay ([γ-33P]ATP, peptide substrate)
Assay type: biochemical
CONDITIONS_USED: as listed in Table S1, Bcr-Abl WT; read-out: IC50 (Table S1)
Give measured pIC50 for each item. Keep answers brief.
Entry type: numeric. Quantity: pIC50, the -log10 of concentration in molar units.

q: Determine its reported pIC50: CCCCCCn1cnc2c(Nc3ccccc3)nc(Nc3ccc(N4CCN(CCO)CC4)cc3)nc21 [Compound 11g]
a: 6.08

q: Determine its reported pIC50: CN1CCN(c2ccc(Nc3nc(NC4CCCCC4)c4ncn(CC5CC5)c4n3)cc2)CC1 [Compound 13b]
a: 4.96

q: Determine its reported pIC50: CCCCCCn1cnc2c(Nc3cccc(F)c3)nc(Nc3ccc(N4CCN(CCO)CC4)cc3)nc21 [Compound 11h]
a: 6.17

q: Determine its reported pIC50: CN1CCN(c2ccc(Nc3nc(N)c4ncn(CC5CC5)c4n3)cc2)CC1 [Compound 13a]
a: 5.40

q: Determine its reported pIC50: CC(C)CCn1cnc2c(Nc3cccc(F)c3)nc(Nc3ccc(N4CCN(CCO)CC4)cc3)nc21 [Compound 11e]
a: 6.89

q: Determine its reported pIC50: CN1CCN(c2ccc(Nc3nc(NCc4ccccc4)c4ncn(CC5CC5)c4n3)cc2)CC1 [Compound 13c]
a: 6.08

###

Tested on: KCL22 B10 (Y253H, 50%)
MEASUREMENT_NOTES: Cytotoxicity assay (resazurin) on KCL22 subclone B10
Assay type: cell-based
CONDITIONS_USED: Homo sapiens, KCL-22, read-out: GI50 KCL22 B10 Y253H (50%), 72 h
Give measured GI50 for each item. Keep answers brief.
Express the result in µM but write the number alone.

q: Determine its reported GI50: CCCCCCn1cnc2c(Nc3ccccc3)nc(Nc3ccc(N4CCN(CCO)CC4)cc3)nc21 [Compound 11g]
a: 7.7

q: Determine its reported GI50: CN1CCN(c2ccc(Nc3nc(Nc4ccccc4)c4ncn(CC5CC5)c4n3)cc2)CC1 [Compound I, reference compound]
a: 5.2

q: Determine its reported GI50: Cc1cn(-c2cc(NC(=O)c3ccc(C)c(Nc4nccc(-c5cccnc5)n4)c3)cc(C(F)(F)F)c2)cn1 [Nilotinib, reference compound]
a: 1.4

q: Determine its reported GI50: OCCN1CCN(c2ccc(Nc3nc(Nc4cccc(F)c4)c4ncn(CC5CC5)c4n3)cc2)CC1 [Compound 11b]
a: 2.6

q: Determine its reported GI50: OCCN1CCN(c2ccc(Nc3nc(Nc4ccc(F)c(F)c4)c4ncn(CC5CC5)c4n3)cc2)CC1 [Compound 11c]
a: 4.1

q: Determine its reported GI50: CC(C)CCn1cnc2c(Nc3ccccc3)nc(Nc3ccc(N4CCN(CCO)CC4)cc3)nc21 [Compound 11d]
a: 7.8

q: Determine its reported GI50: CN1CCN(Cc2ccc(Nc3nc(Nc4cccc(F)c4)c4ncn(CC5CC5)c4n3)cc2)CC1 [Compound 7a]
a: 7.4

q: Determine its reported GI50: OCCN1CCN(c2ccc(Nc3nc(Nc4ccccc4)c4ncn(CC5CC5)c4n3)cc2)CC1 [Compound 11a]
a: 6.3

q: Determine its reported GI50: CN1CCN(Cc2ccc(Nc3nc(Nc4ccc(F)c(F)c4)c4ncn(CC5CC5)c4n3)cc2)CC1 [Compound 7b]
a: 6.6
